Each recorded value in this set is attributed to patent US6562828B1.

Consider the following compounds and their measured inhibition at 1 mg/kg readings.
biological target: Human FXa (Homo sapiens); construct: Human FXa [Enzyme research Laboratories (USA)] enzyme; purchased Enzyme Research Laboratories (USA); test: Intravenous administration test in mouse, human FXa inhibitory activity in serum; format: in vivo; settings: ICR mice, i.v., 1 mg/kg, 120 minutes, mean ± S.D., n = 3
Sequence (P00742 235-488 limits assumed): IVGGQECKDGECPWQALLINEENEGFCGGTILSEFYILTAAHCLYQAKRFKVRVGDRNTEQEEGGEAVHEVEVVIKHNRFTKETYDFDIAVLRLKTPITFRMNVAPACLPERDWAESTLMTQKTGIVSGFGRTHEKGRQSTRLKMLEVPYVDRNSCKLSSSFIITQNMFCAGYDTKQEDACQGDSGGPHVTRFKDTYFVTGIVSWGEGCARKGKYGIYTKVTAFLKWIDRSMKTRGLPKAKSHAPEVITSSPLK
Sequence (P00742 41-179 limits assumed): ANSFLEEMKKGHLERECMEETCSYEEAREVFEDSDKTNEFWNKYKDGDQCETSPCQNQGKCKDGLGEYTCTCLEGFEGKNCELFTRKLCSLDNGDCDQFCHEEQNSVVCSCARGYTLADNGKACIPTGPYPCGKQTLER
Where a name gives a salt, the structure may show the parent alone.
Answer in %, number only, no unit symbol.

Completed entries (count: 3):
CC(=N)N1CCC(Oc2ccc(N(Cc3nc4cc(C(=N)N)ccc4n3CC(=O)NC3CCCCC3)C(=O)c3ccc(C(=O)O)cc3)cc2)CC1: 3
CC(=N)N1CCC(Oc2ccc(N(Cc3nc4cc(C(=N)N)ccc4n3CC(=O)N[C@@H](C)c3ccccc3)C(=O)c3ccc(C(=O)O)cc3)cc2)CC1 [Example 17, Dihydrochloride]: 1
CC(=N)N1CC[C@H](Oc2ccc([C@H](Cc3ccc4ccc(C(=N)N)cc4c3)C(=O)O)cc2)C1 [Comparative Example 1, reference compound]: 1

Req: For the compound N=C(N)N1CCc2ccc(OCC3(C(=O)O)CCN(c4ccncc4)CC3)cc2C1 [Example 7, Dihydrochloride] , what inhibition at 1 mg/kg is on record?
Resp: 30

Req: I have this compound here, CC(=N)N1CCC(Oc2ccc(N(Cc3nc4cc(C(=N)N)ccc4n3CC(=O)Nc3ccc(OCc4ccccc4)cc3)C(=O)c3ccc(C(=O)O)cc3)cc2)CC1 [Example 18, Dihydrochloride] , and I need its recorded inhibition at 1 mg/kg.
Resp: 23

###

target: Human FXa (Homo sapiens, UniProt P00742); construct: Human FXa [Enzyme research Laboratories (USA)] enzyme; purchased Enzyme Research Laboratories (USA); experiment: Oral administration test in mouse, human FXa inhibitory activity in serum; assay type: in vivo; conditions: ICR mice, 30 minutes, mean ± S.D., n = 3
Structures can show the parent of a compound that is named as a salt.
Measured quantity: inhibition at 10 mg/kg (%)
Field format: number, assumed %, no unit text.

CC(=N)N1CC[C@H](Oc2ccc([C@H](Cc3ccc4ccc(C(=N)N)cc4c3)C(=O)O)cc2)C1 [Comparative Example 1, reference compound]: 11
CC(=N)N1CCC(Oc2ccc(N(Cc3nc4cc(C(=N)N)ccc4n3CC(=O)N[C@@H](C)c3ccccc3)C(=O)c3ccc(C(=O)O)cc3)cc2)CC1 [Example 17, Dihydrochloride]: 46
CC(=N)N1CCC(Oc2ccc(N(Cc3nc4cc(C(=N)N)ccc4n3CC(=O)NC3CCCCC3)C(=O)c3ccc(C(=O)O)cc3)cc2)CC1: 22

Now consider a different compound.
Req: What value of inhibition at 10 mg/kg has been recorded for this entry: N=C(N)N1CCc2ccc(OCC3(C(=O)O)CCN(c4ccncc4)CC3)cc2C1 [Example 7, Dihydrochloride]
Resp: 48

###

Reported inhibition at 10 mg/kg by item:
biological target: Human FXa (Homo sapiens, UniProt P00742); construct: Human FXa [Enzyme research Laboratories (USA)] enzyme; purchased Enzyme Research Laboratories (USA); experiment: Oral administration test in mouse, human FXa inhibitory activity in serum; type: in vivo; details: ICR mice, 120 minutes, mean ± S.D., n = 3
Where a name gives a salt, the structure may show the parent alone.
Could you give me the number in %? Just the number is fine.

Some compounds with known inhibition at 10 mg/kg results, for comparison:
CC(=N)N1CC[C@H](Oc2ccc([C@H](Cc3ccc4ccc(C(=N)N)cc4c3)C(=O)O)cc2)C1 [Comparative Example 1, reference compound]: 6
N=C(N)N1CCc2ccc(OCC3(C(=O)O)CCN(c4ccncc4)CC3)cc2C1 [Example 7, Dihydrochloride]: 26
CC(=N)N1CCC(Oc2ccc(N(Cc3nc4cc(C(=N)N)ccc4n3CC(=O)N[C@@H](C)c3ccccc3)C(=O)c3ccc(C(=O)O)cc3)cc2)CC1 [Example 17, Dihydrochloride]: 20

// next item, inhibition at 10 mg/kg requested
Req: Return inhibition at 10 mg/kg measured with Human FXa (Homo sapiens, UniProt P00742) given this compound: CC(=N)N1CCC(Oc2ccc(N(Cc3nc4cc(C(=N)N)ccc4n3CC(=O)NC3CCCCC3)C(=O)c3ccc(C(=O)O)cc3)cc2)CC1
Resp: 12

###

Biological target: Human FXa (Homo sapiens, UniProt P00742)
Construct: Human FXa [Enzyme research Laboratories (USA)] enzyme; purchased Enzyme Research Laboratories (USA)
Experiment: Determination of anti-factor Xa (FXa) activity, synthetic substrate S-2222
Assay type: biochemical
Settings: S-2222, 37° C., pH 8.4, read-out: Experimental Example 1: anti-FXa activity, IC50
Description: Determination of Anti-factor Xa (FXa) Activity Human FXa [Enzyme research Laboratories (USA)] enzyme (40 μl, 0.16U/ml) and test compounds (40 l) adjusted to various concentrations were incubated in 0.1M Tris (Tris-hydroxymethyl-aminomethane) buffer (pH 8.4) containing 0.2M sodium chloride (herein to be referred to as 0.1 M tris-0.2M NaCl buffer) (40 μl) at 37° C. for 10 min. […]
Sequence (P00742 235-488 limits assumed): as the sequence (P00742 235-488 limits assumed) above
Sequence (P00742 41-179 partner limits assumed): as the sequence (P00742 41-179 limits assumed) above
Counter-ions that a name gives are not always drawn.
Measured quantity: log10(IC50) (log10 of the value in nM)
Recall that a logarithmic scale is used here: each number is log10 of IC50 in nM.

Cc1cc(N2CCC(COc3ccc4c(c3)CN(C(=N)N)CC4)(C(=O)O)CC2)ccn1 [Example 13, Dihydrochloride]: 2.30
CC(=N)N1CCC(Oc2ccc(N(Cc3nc4cc(C(=N)N)ccc4n3CC(=O)N[C@@H](C)c3ccccc3)C(=O)c3ccc(C(=O)O)cc3)cc2)CC1 [Example 17, Dihydrochloride]: 0.48
CC(=N)N1CCC(Oc2ccc(OCc3nc4cc(C(=N)N)ccc4n3CC(=O)c3ccccc3)cc2)CC1 [Example 57, Dihydrochloride]: 1.70
N=C(N)N1CCc2ccc(OCC3CCN(c4ccc(NC(=O)c5ccccc5)cn4)CC3)cc2C1 [Example 32, Dihydrochloride]: 2.60
Cc1cc(N2CCC(COc3ccc4c(c3)CN(C(=N)N)CC4)(C(=O)O)CC2)cc(C)n1 [Example 11, Dihydrochloride]: 2.48

Req: Need log10(IC50) of N=C(N)N1CCc2ccc(SCC3(C(=O)O)CCN(c4ccncc4)CC3)cc2C1 [Example 43, Dihydrochloride] , thanks.
Resp: 2.60

###

target: Human FXa (Homo sapiens, UniProt P00742); construct: Human FXa [Enzyme research Laboratories (USA)] enzyme; purchased Enzyme Research Laboratories (USA); experiment: Intravenous administration test in mouse, human FXa inhibitory activity in serum; type: in vivo; details: ICR mice, i.v., 1 mg/kg, 30 minutes, mean ± S.D., n = 3
Structures can show the parent of a compound that is named as a salt.
Measured quantity: inhibition at 1 mg/kg (%)
Write it as a number; the unit % goes unstated.

N=C(N)c1ccc2c(c1)nc(CN(C(=O)c1ccc(C(=O)O)cc1)c1ccc(OC3CCN(C(=N)N)CC3)cc1)n2CC(=O)NC1CCCCC1 [Example 65, Dihydrochloride]: 34
CC(=N)N1CCC(Oc2ccc(N(Cc3nc4cc(C(=N)N)ccc4n3CC(=O)Nc3ccc(OCc4ccccc4)cc3)C(=O)c3ccc(C(=O)O)cc3)cc2)CC1 [Example 18, Dihydrochloride]: 60
CCN=C(N)N1CCC(Oc2ccc(N(Cc3nc4cc(C(=N)N)ccc4n3CC(=O)NC3CCCCC3)C(=O)c3ccc(C(=O)O)cc3)cc2)CC1 [Example 112, Dihydrochloride]: 41
CC(=N)N1CC[C@H](Oc2ccc([C@H](Cc3ccc4ccc(C(=N)N)cc4c3)C(=O)O)cc2)C1 [Comparative Example 1, reference compound]: 14

Req: // query inhibition at 1 mg/kg value for entry COC(=O)c1ccc(C(=O)N(Cc2nc3cc(C(=N)N)ccc3n2CC(=O)NC2CCCCC2)c2ccc(OC3CCN(C(=N)N)CC3)cc2)cc1 [Example 64, Dihydrochloride]
Resp: 43

###

biological target: Human FXa (Homo sapiens); construct: Human FXa [Enzyme research Laboratories (USA)] enzyme; purchased Enzyme Research Laboratories (USA); assay: Determination of anti-factor Xa (FXa) activity, synthetic substrate S-2222; format: biochemical; conditions: S-2222, 37° C., pH 8.4, read-out: Experimental Example 1: anti-FXa activity, IC50
Where a name gives a salt, the structure may show the parent alone.
Quick reference: IC50 of the listed items.
Expressed in nM, but write only the number.

Some solved entries appear below for comparison.
N=C(N)N1CCc2ccc(OCC3CCN(c4ccncc4CCC(=O)O)CC3)cc2C1 [Example 89, Dihydrochloride]: 200
N#CC1(CCOc2ccc3c(c2)CN(C(=N)N)CC3)CCN(c2ccncc2)CC1 [Example 37, Dihydrochloride]: 40
CC(=N)N1CCC(COc2ccc3c(c2)CN(C(=N)N)CC3)CC1 [Example 29, Dihydrochloride]: 500
N=C(N)c1ccc2ccc(OCC3(C(=O)O)CCN(c4ccncc4)CC3)c(Cl)c2c1 [Example 39, Dihydrochloride]: 500
CCOC(=O)CN(Cc1nc2cc(C(=N)N)ccc2n1CC(=O)NC1CCCCC1)c1ccc(OC2CCN(C(C)=N)CC2)cc1 [Example 62, Dihydrochloride]: 100
N=C(N)N1CCc2ccc(OCC3CCN(C(=N)Cc4ccccc4)CC3)cc2C1 [Example 30, Dihydrochloride]: 400

Okay, next one:
Req: Given the compound CCOC(=O)C1(COc2ccc3c(c2)CN(C(=N)N)CC3)CCN(c2ccnc(C)c2)CC1 [Example 12, Dihydrochloride] , what is its reported IC50?
Resp: 600
